System: 777334-354-R2-J4-PDC tumor spheroids with HUVEC/MSC, viability
Measurement description: Anticancer human tumor 777334-354-R2-J4-PDC patient-derived pancreatic adenocarcinoma cell line growth inhibition [GQUAD]
Applied conditions: second compound 0.316 µM; first compound 0.316 µM; stronger effect = lower value
Property: viability, T/C (%)
Note: unit % is implicit; provide only the numeric part.

Here are 5 compounds together with their reported answers.
| Compound | viability, T/C [%] |
| --- | --- |
| COc1cccc2c1C(=O)c1c(O)c3c(c(O)c1C2=O)CC(O)(C(=O)CO)CC3OC1CC(N)C(O)C(C)O1 (stereo unspecified) + CN(C)c1ccc(Nc2c3ccc(NC(=O)CCN4CCCC4)cc3nc3cc(NC(=O)CCN4CCCC4)ccc23)cc1 | 70.1 |
| Cc1[nH]c2ccccc2c1CCNCc1ccc(/C=C/C(=O)NO)cc1 + Cc1cnc(CNC(=O)c2c(=O)c3ccc(N4CCCN(C)CC4)nc3n3c2sc2ccccc23)cn1 | 32.9 |
| COc1cc(C2c3cc4c(cc3C(OC3OC5COC(C)OC5C(O)C3O)C3COC(=O)C23)OCO4)cc(OC)c1O (stereo unspecified) + Cc1[nH]c2ccc(F)cc2c1-c1nc2c3cccnc3c3ncccc3c2[nH]1 | 84.1 |
| CC(=O)O[C@H]1C(=O)[C@@]2(C)[C@H]([C@H](OC(=O)c3ccccc3)[C@]3(O)C[C@H](OC(=O)[C@H](O)[C@@H](NC(=O)c4ccccc4)c4ccccc4)C(C)=C1C3(C)C)[C@]1(OC(C)=O)CO[C@@H]1C[C@@H]2O + Cc1[nH]c2ccc(F)cc2c1-c1nc2c3cccnc3c3ncccc3c2[nH]1 | 45.6 |
| CC1COCCN1c1cc(C2(O)CC3CCC(C2)O3)c2cnn(-c3ccn[nH]3)c2n1 (stereo unspecified) + Cc1cnc(CNC(=O)c2c(=O)c3ccc(N4CCCN(C)CC4)nc3n3c2sc2ccccc23)cn1 | 46 |

Exercise: Which viability, T/C reading was recorded for the compound O=c1[nH]cc(F)c(=O)[nH]1 + Cc1cnc(CNC(=O)c2c(=O)c3ccc(N4CCCN(C)CC4)nc3n3c2sc2ccccc23)cn1 ?
Key: 73.8

Exercise: Which viability, T/C reading was recorded for the compound Nc1ccn(C2OC(CO)C(O)C2(F)F)c(=O)n1 (stereo unspecified) + Cc1cnc(CNC(=O)c2c(=O)c3ccc(N4CCCN(C)CC4)nc3n3c2sc2ccccc23)cn1 ?
Key: 55.5

Exercise: Which viability, T/C reading was recorded for the compound Nc1ccn(C2OC(CO)C(O)C2(F)F)c(=O)n1 (stereo unspecified) + Cc1[nH]c2ccc(F)cc2c1-c1nc2c3cccnc3c3ncccc3c2[nH]1 ?
Key: 59.4

Exercise: Which viability, T/C reading was recorded for the compound CCCS(=O)(=O)Nc1ccc(F)c(C(=O)c2c[nH]c3ncc(-c4ccc(Cl)cc4)cc23)c1F + Cc1[nH]c2ccc(F)cc2c1-c1nc2c3cccnc3c3ncccc3c2[nH]1 ?
Key: 96.2

Exercise: Which viability, T/C reading was recorded for the compound CC1COCCN1c1cc(-c2ccnn2C)c2ccnc(-c3ccn[nH]3)c2n1 (stereo unspecified) + Cc1cnc(CNC(=O)c2c(=O)c3ccc(N4CCCN(C)CC4)nc3n3c2sc2ccccc23)cn1 ?
Key: 48.6

Exercise: Which viability, T/C reading was recorded for the compound O=C(c1cc(Cc2n[nH]c(=O)c3ccccc23)ccc1F)N1CCN(C(=O)C2CC2)CC1 + Cc1[nH]c2ccc(F)cc2c1-c1nc2c3cccnc3c3ncccc3c2[nH]1 ?
Key: 95.1

###

// values below are reported viability, T/C
Tested on: 777334-354-R2-J4-PDC tumor spheroids with HUVEC/MSC, viability
Measurement description: Anticancer human tumor 777334-354-R2-J4-PDC cell line growth inhibition [GQUAD];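 further: spheroids exposed to compounds for 7 days before readout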
Applied conditions: second compound 0.1 µM; first compound 1 µM; stronger effect = lower value
Description: DNA G-quadruplex Stabilizer Agents in Combinations in Complex Spheroids A high-throughput screen of multi-cell type tumor spheroids was designed to identify active combinations of DNA G-quadruplex stabilizer agents and targeted small molecules. […] Compounds. […] If the clinical Cmax for an agent had not been determined, the highest concentration tested was 10 microM. […]
Note: unit % is implicit; provide only the numeric part.

| Compound | Unit string | viability, T/C |
| --- | --- | --- |
| O=C(c1cc(Cc2n[nH]c(=O)c3ccccc23)ccc1F)N1CCN(C(=O)C2CC2)CC1 + Cc1[nH]c2ccc(F)cc2c1-c1nc2c3cccnc3c3ncccc3c2[nH]1 | % | 92.5 |

Exercise: Which viability, T/C reading was recorded for the compound C#Cc1c(F)ccc2cc(O)cc(-c3ncc4c(N5CC6CCC(C5)N6)nc(OCC56CCCN5CC(F)C6)nc4c3F)c12 (stereo not given) + Cc1[nH]c2ccc(F)cc2c1-c1nc2c3cccnc3c3ncccc3c2[nH]1 ?
Key: 38.1

Exercise: Which viability, T/C reading was recorded for the compound Nc1ccn(C2OC(CO)C(O)C2(F)F)c(=O)n1 (stereo not given) + CN(C)c1ccc(Nc2c3ccc(NC(=O)CCN4CCCC4)cc3nc3cc(NC(=O)CCN4CCCC4)ccc23)cc1 ?
Key: 39.1

Exercise: Which viability, T/C reading was recorded for the compound C=CCn1c(=O)c2cnc(Nc3ccc(N4CCN(C)CC4)cc3)nc2n1-c1cccc(C(C)(C)O)n1 + Cc1cnc(CNC(=O)c2c(=O)c3ccc(N4CCCN(C)CC4)nc3n3c2sc2ccccc23)cn1 ?
Key: 37

Exercise: Which viability, T/C reading was recorded for the compound COc1ccc([C@@H](O)c2cc(-c3ncnc4cc(N5CCOCC5)ccc34)c(F)cc2Cl)nn1 + Cc1[nH]c2ccc(F)cc2c1-c1nc2c3cccnc3c3ncccc3c2[nH]1 ?
Key: 71

###

// values below are reported IC50
Test system: 777334-354-R2-J4-PDC tumor spheroids with HUVEC/MSC, viability
Measurement description: Anticancer human tumor 777334-354-R2-J4-PDC cell line growth inhibition [GQUAD];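 further: spheroids exposed to compounds for 7 days before readout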
Applied conditions: curve of first compound; second compound 1 µM
Description: DNA G-quadruplex Stabilizer Agents in Combinations in Complex Spheroids A high-throughput screen of multi-cell type tumor spheroids was designed to identify active combinations of DNA G-quadruplex stabilizer agents and targeted small molecules. […] Compounds. […] If the clinical Cmax for an agent had not been determined, the highest concentration tested was 10 microM. […]
Note: unit nM is implicit; provide only the numeric part.

| Compound | IC50, nM |
| --- | --- |
| COc1ccc([C@@H](O)c2cc(-c3ncnc4cc(N5CCOCC5)ccc34)c(F)cc2Cl)nn1 + Cc1cnc(CNC(=O)c2c(=O)c3ccc(N4CCCN(C)CC4)nc3n3c2sc2ccccc23)cn1 | 1490 |
| CC(C)(O)C1CCC(Nc2ccc3ncc(-c4cccc(C(F)(F)F)c4)n3n2)CC1 (stereo unspecified) + Cc1[nH]c2ccc(F)cc2c1-c1nc2c3cccnc3c3ncccc3c2[nH]1 | 874 |

Below: the item to evaluate.
Exercise: Which IC50 reading was recorded for the compound CC1COCCN1c1cc(C2(O)CC3CCC(C2)O3)c2cnn(-c3ccn[nH]3)c2n1 (stereo unspecified) + Cc1[nH]c2ccc(F)cc2c1-c1nc2c3cccnc3c3ncccc3c2[nH]1 ?
Key: 186

###

// values below are reported viability, T/C
Tested on: 777334-354-R2-J4-PDC tumor spheroids with HUVEC/MSC, viability
Measurement description: Anticancer human tumor 777334-354-R2-J4-PDC cell line growth inhibition [GQUAD];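 further: spheroids exposed to compounds for 7 days before readout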
Applied conditions: second compound 10 µM; first compound 0.0316 µM; stronger effect = lower value
Note: unit % is implicit; provide only the numeric part.

Here are 4 compounds together with their reported answers.
| Compound | Target or system | viability, T/C / % |
| --- | --- | --- |
| CC(C)n1c(=O)n(C)c2cnc3cc(F)c(-c4ccc(OCCCN5CCCCC5)nc4)cc3c21 + Cc1[nH]c2ccc(F)cc2c1-c1nc2c3cccnc3c3ncccc3c2[nH]1 | 777334-354-R2-J4-PDC tumor spheroids with HUVEC/MSC, viability | 28.7 |
| Cc1cccc(N(C)C(=O)C2C(O)CCN2c2nc(C)cc(C(F)(F)F)c2C#N)c1 (stereo not given) + CN(C)c1ccc(Nc2c3ccc(NC(=O)CCN4CCCC4)cc3nc3cc(NC(=O)CCN4CCCC4)ccc23)cc1 | 777334-354-R2-J4-PDC tumor spheroids with HUVEC/MSC, viability | 73.7 |
| C=CCn1c(=O)c2cnc(Nc3ccc(N4CCN(C)CC4)cc3)nc2n1-c1cccc(C(C)(C)O)n1 + Cc1cnc(CNC(=O)c2c(=O)c3ccc(N4CCCN(C)CC4)nc3n3c2sc2ccccc23)cn1 | 777334-354-R2-J4-PDC tumor spheroids with HUVEC/MSC, viability | 57.3 |
| CC(=O)O[C@H]1C(=O)[C@@]2(C)[C@H]([C@H](OC(=O)c3ccccc3)[C@]3(O)C[C@H](OC(=O)[C@H](O)[C@@H](NC(=O)c4ccccc4)c4ccccc4)C(C)=C1C3(C)C)[C@]1(OC(C)=O)CO[C@@H]1C[C@@H]2O + Cc1[nH]c2ccc(F)cc2c1-c1nc2c3cccnc3c3ncccc3c2[nH]1 | 777334-354-R2-J4-PDC tumor spheroids with HUVEC/MSC, viability | 30.7 |

Exercise: Look up viability, T/C with 777334-354-R2-J4-PDC tumor spheroids with HUVEC/MSC, viability for this compound: CC1COCCN1c1cc(C2(S(C)(=N)=O)CC2)nc(-c2ccnc3[nH]ccc23)n1 (stereo not given) + Cc1cnc(CNC(=O)c2c(=O)c3ccc(N4CCCN(C)CC4)nc3n3c2sc2ccccc23)cn1
Key: 56.5
